# Tested on: lacZ under control of the tetA promoter (PtetA) in E. coli KM3
# Assay type: cell-based
# COND: Table 4; nicosulfuron 20 ppm; 48 hrs at 30° C.
PROPERTY: relative β-galactosidase activity, inducer Ns

MOLECULE	DATA VALUE
L1-38: SU-responsive TetR(B) variant, library L1 hit (protein, Sulfonylurea responsive repressor L1-38) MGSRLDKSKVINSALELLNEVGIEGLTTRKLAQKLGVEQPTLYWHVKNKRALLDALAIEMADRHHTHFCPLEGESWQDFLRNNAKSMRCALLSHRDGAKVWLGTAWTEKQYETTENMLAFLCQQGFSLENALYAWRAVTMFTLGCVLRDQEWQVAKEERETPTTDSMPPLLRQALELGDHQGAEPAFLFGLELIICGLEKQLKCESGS	8.7
